Provenance of the data: ChEMBL document CHEMBL2429815

Tested on: Staphylococcus aureus
assay info: Antibacterial activity against Staphylococcus aureus ATCC 6538 assessed as growth inhibition at 10 ug/ml by disc diffusion method
Assay type: functional
condition details: read-out: IZ
readout type: zone of inhibition at 10 µg/mL (mm)
// units = mm; emit number, no label

For O=C1CC(c2ccccc2Br)N(Cc2ccccc2)C2CCCCC2N1 (configuration not stated) , write its zone of inhibition at 10 µg/mL.
15

Respond only with zone of inhibition at 10 µg/mL recorded for COc1ccc(C2CC(=O)NC3CCCCC3N2Cc2ccccc2)cc1 (configuration not stated)
12

Give a short answer stating reported zone of inhibition at 10 µg/mL for O=C1CC(c2cccc([N+](=O)[O-])c2)N(Cc2ccccc2)C2CCCCC2N1 (configuration not stated) .
10

Please list zone of inhibition at 10 µg/mL recorded for the molecule COc1ccc(C2CC(=O)NC3CCCCC3N2Cc2ccccc2)cc1OC (configuration not stated)
7

Please report the measured zone of inhibition at 10 µg/mL for O=C1CC(c2ccccc2Cl)N(Cc2ccccc2)C2CCCCC2N1 (configuration not stated)
8

Determine its reported zone of inhibition at 10 µg/mL: O=C1CC(c2cc3ccccc3nc2Cl)N(Cc2ccccc2)C2CCCCC2N1 (configuration not stated)
13

Quick one: give measured zone of inhibition at 10 µg/mL for O=C1CC(c2coc3ccccc3c2=O)N(Cc2ccccc2)C2CCCCC2N1 (configuration not stated)
8

// fetch zone of inhibition at 10 µg/mL given entry `O=C(O)c1cn(C2CC2)c2cc(N3CCNCC3)c(F)cc2c1=O`
18

Please supply the value of reported zone of inhibition at 10 µg/mL for the item O=C1CC(c2ccc([N+](=O)[O-])cc2)N(Cc2ccccc2)C2CCCCC2N1 (configuration not stated)
15

Give recorded zone of inhibition at 10 µg/mL. O=C1CC(c2ccccc2)N(Cc2ccccc2)C2CCCCC2N1 (configuration not stated)
9

Tell me zone of inhibition at 10 µg/mL reported for O=C1CC(c2ccc(Br)cc2)N(Cc2ccccc2)C2CCCCC2N1 (configuration not stated)
10

State its zone of inhibition at 10 µg/mL: O=C1CC(c2ccc(Cl)cc2)N(Cc2ccccc2)C2CCCCC2N1 (configuration not stated)
10
